# assay system: Cass2 (Vibrio cholerae)
property name: pKd
Numbers only, as −log10 of the molar value.

Entry under test: c1ccc([P+](c2ccccc2)(c2ccccc2)c2ccccc2)cc1 [tetraphenylphosphonium (TPP), tetraphenylphosphonium chloride] . Its pKd was 6.70

====

# assay system: (E134Q)Cass2 (Vibrio cholerae, UniProt D0VX23, E134Q)
# experimental setup: pH 7.5; read-out: Ligand binding affinity KD, Cass2 E134Q
property name: Kd (nM)
One number for each entry, in nM.

Entry under test: c1ccc([P+](c2ccccc2)(c2ccccc2)c2ccccc2)cc1 [tetraphenylphosphonium (TPP), tetraphenylphosphonium chloride] . Its Kd was 200
